Entries and their T/C
System: CD2F1 mice, L1210 leukemia ip, survival T/C
Assay: NCI In Vivo Anticancer Drug Screen. Data for tumor model L1210 Leukemia (intraperitoneal) in CD2F1 (CDF1) mice
Conditions: endpoint: mean survival time; dose: 5.0 mg/kg/injection; schedule: Q04DX003 (ip); vehicle: saline with Tween-80; higher = longer survival
Inconclusive results and toxic doses are left out.

-- ask Output T/C of CN(C)CCC(=O)c1ccc([N+](=O)[O-])cc1
-- reply 100 % of control

-- ask State its T/C: Clc1ccc(C[P+](c2ccccc2)(c2ccccc2)c2ccccc2)c(Cl)c1
-- reply 92 % of control

-- ask Given COc1ccccc1N1C(=O)C=CC1=O , respond with its T/C.
-- reply 98 % of control

-- ask Tell me measured T/C for CCN(CC)c1ccc2c(-c3ccccc3C(=O)O)c3ccc(=[N+](CC)CC)cc-3oc2c1 please.
-- reply 105 % of control
